Test system: SNU-C4 xenografted nude mice
test: Biodistribution study in SNU-C4 xenografted nude mice after intravenous injection
Type: in vivo, mouse
run_conditions: SNU-C4 tumor, 10 min after intravenous injection
Decision: % ID/g Tumor beneath 3 % ID/g gives Yes; % ID/g Tumor meeting or exceeding 3 % ID/g gives No.

In the record for O=C([O-])CN1CCNCCN(CC(=O)[O-])CCN(CC(=O)[O-])CC1.[68Ga+3] [^68Ga-DO3A, reference compound] , is % ID/g Tumor less than 3 % ID/g?
No

In the record for NC(CNC(=O)CN1CCN(CC(=O)[O-])CCN(CC(=O)[O-])CC1)C(=O)[O-].[68Ga+3] (centres unmarked) [^68Ga-NOTA-ala] , is % ID/g Tumor less than 3 % ID/g?
Yes

In the record for O=C([O-])CN1CCNCCN(CC(=O)[O-])CCNCC1.[68Ga+3] [^68Ga-DO2A, reference compound] , is % ID/g Tumor less than 3 % ID/g?
Yes

In the record for O=C([O-])CN1CCN(CC(=O)[O-])CCN(CC(=O)[O-])CC1.[68Ga+3] [^68Ga-NOTA, reference compound] , is % ID/g Tumor less than 3 % ID/g?
Yes

In the record for NC(CN1CCN(CC(=O)[O-])CCNCCN(CC(=O)[O-])CC1)C(=O)[O-].[68Ga+3] (centres unmarked) [^68Ga-DO2A-ala] , is % ID/g Tumor less than 3 % ID/g?
Yes

In the record for N[C@@H](CN1CCN(CC(=O)[O-])CCN(CC(=O)[O-])CCN(CC(=O)[O-])CC1)C(=O)O.[68Ga+3] (stereo in doubt) [^68Ga-DO3A-ala] , is % ID/g Tumor less than 3 % ID/g?
No

In the record for O=C([O-])CN1CCN(CC(=O)[O-])CCN(CC(=O)O)CCN(CC(=O)[O-])CC1.[68Ga+3] [^68Ga-DOTA, reference compound] , is % ID/g Tumor less than 3 % ID/g?
Yes

In the record for NC(CNC(=O)CN1CCN(CC(=O)[O-])CCN(CC(=O)[O-])CCN(CC(=O)[O-])CC1)C(=O)O.[68Ga+3] (centres unmarked) [^68Ga-DOTA-ala] , is % ID/g Tumor less than 3 % ID/g?
No

---

Tested on: SNU-C4 xenografted nude mice
test: Biodistribution study in SNU-C4 xenografted nude mice after intravenous injection
Type: in vivo, mouse
run_conditions: kidney, 30 min after intravenous injection
Please mark criterion met if the recorded % ID/g Kidney is equal to or greater than 10 % ID/g, and criterion not met if it falls below.

Could you tell me if the measured % ID/g Kidney of NC(CN1CCN(CC(=O)[O-])CCNCCN(CC(=O)[O-])CC1)C(=O)[O-].[68Ga+3] (centres unmarked) [^68Ga-DO2A-ala] reaches 10 % ID/g or more?
criterion met

Could you tell me if the measured % ID/g Kidney of NC(CNC(=O)CN1CCN(CC(=O)[O-])CCN(CC(=O)[O-])CCN(CC(=O)[O-])CC1)C(=O)O.[68Ga+3] (centres unmarked) [^68Ga-DOTA-ala] reaches 10 % ID/g or more?
criterion met

Could you tell me if the measured % ID/g Kidney of O=C([O-])CN1CCN(CC(=O)[O-])CCN(CC(=O)O)CCN(CC(=O)[O-])CC1.[68Ga+3] [^68Ga-DOTA, reference compound] reaches 10 % ID/g or more?
criterion not met

Could you tell me if the measured % ID/g Kidney of O=C([O-])CN1CCNCCN(CC(=O)[O-])CCNCC1.[68Ga+3] [^68Ga-DO2A, reference compound] reaches 10 % ID/g or more?
criterion met

Could you tell me if the measured % ID/g Kidney of NC(CNC(=O)CN1CCN(CC(=O)[O-])CCN(CC(=O)[O-])CC1)C(=O)[O-].[68Ga+3] (centres unmarked) [^68Ga-NOTA-ala] reaches 10 % ID/g or more?
criterion not met

Could you tell me if the measured % ID/g Kidney of N[C@@H](CN1CCN(CC(=O)[O-])CCN(CC(=O)[O-])CCN(CC(=O)[O-])CC1)C(=O)O.[68Ga+3] (stereo in doubt) [^68Ga-DO3A-ala] reaches 10 % ID/g or more?
criterion not met

Could you tell me if the measured % ID/g Kidney of O=C([O-])CN1CCNCCN(CC(=O)[O-])CCN(CC(=O)[O-])CC1.[68Ga+3] [^68Ga-DO3A, reference compound] reaches 10 % ID/g or more?
criterion not met

Could you tell me if the measured % ID/g Kidney of O=C([O-])CN1CCN(CC(=O)[O-])CCN(CC(=O)[O-])CC1.[68Ga+3] [^68Ga-NOTA, reference compound] reaches 10 % ID/g or more?
criterion not met
